Cited source for all entries: paper PMC3961306

The reader will find reported %-inhibition of MAP2K7 values listed item by item below.
Tested on: panel of more than 300 wild-type and mutant kinases (313 kinase panel) (Homo sapiens)
Test: Kinase profiling in a biochemical assay panel (mobility shift assays and ELISA), %-inhibition at 1 μM; selectivity entropy
Assay conditions: kinase MAP2K7; compound at 1 μM
Unit % implied. Number only.

Compound: CC(=O)Nc1cccc(-n2c(=O)n(C3CC3)c(=O)c3c(Nc4ccc(I)cc4F)n(C)c(=O)c(C)c32)c1
Tested on: panel of more than 300 wild-type and mutant kinases (313 kinase panel) (Homo sapiens)
Parameter: %-inhibition of MAP2K7
Test value: -2.32
//
Compound: Cc1ccc(Nc2nccc(N(C)c3ccc4c(C)n(C)nc4c3)n2)cc1S(N)(=O)=O
Tested on: panel of more than 300 wild-type and mutant kinases (313 kinase panel) (Homo sapiens)
Parameter: %-inhibition of MAP2K7
Test value: 10
//
Compound: COc1cc2c(Nc3ccc(Br)cc3F)ncnc2cc1OCC1CCN(C)CC1
Tested on: panel of more than 300 wild-type and mutant kinases (313 kinase panel) (Homo sapiens)
Parameter: %-inhibition of MAP2K7
Test value: 5.36

Exercise: Field request: %-inhibition of MAP2K7 | item: COc1cc2nccc(Oc3ccc(NC(=O)C4(C(=O)Nc5ccc(F)cc5)CC4)cc3)c2cc1OC [cabozantinib]
Solution: 10

Exercise: Query: %-inhibition of MAP2K7; subject: `CC(C)(C)c1nc(-c2cccc(NS(=O)(=O)c3c(F)cccc3F)c2F)c(-c2ccnc(N)n2)s1`
Solution: -4.55

Exercise: Look up %-inhibition of MAP2K7 for this compound: `C[C@@H](Oc1cc(-c2cnn(C3CCNCC3)c2)cnc1N)c1c(Cl)ccc(F)c1Cl`
Solution: 4.36

----------
Tested on: panel of more than 300 wild-type and mutant kinases (313 kinase panel) (Homo sapiens, UniProt P51617)
Test: Kinase profiling in a biochemical assay panel (mobility shift assays and ELISA), %-inhibition at 1 μM; selectivity entropy
Assay conditions: kinase IRAK1; compound at 1 μM
Collected %-inhibition of IRAK1 values appear next to each entry.
Value expressed in %; do not type the unit.

Past entries and their recorded results:
Molecule: CO[C@H]1C[C@@H]2CC[C@@H](C)[C@@](O)(O2)C(=O)C(=O)N2CCCC[C@H]2C(=O)O[C@H]([C@H](C)C[C@@H]2CC[C@@H](OC(=O)C(C)(CO)CO)[C@H](OC)C2)CC(=O)[C@H](C)/C=C(\C)[C@@H](O)[C@@H](OC)C(=O)[C@H](C)C[C@H](C)/C=C/C=C/C=C/1C [temsirolimus]
Measurement units: %
Test value: 13

Molecule: N#CC[C@H](C1CCCC1)n1cc(-c2ncnc3[nH]ccc23)cn1 [ruxolitinib]
Measurement units: %
Test value: 50

Molecule: Cc1cn(-c2cc(NC(=O)c3ccc(C)c(Nc4nccc(-c5cccnc5)n4)c3)cc(C(F)(F)F)c2)cn1 [nilotinib]
Measurement units: %
Test value: 8

Molecule: O=S(=O)(c1cccc2cnccc12)N1CCCNCC1 [fasudil]
Measurement units: %
Test value: 3.42

Molecule: CC(=O)Nc1cccc(-n2c(=O)n(C3CC3)c(=O)c3c(Nc4ccc(I)cc4F)n(C)c(=O)c(C)c32)c1 [trametinib]
Measurement units: %
Test value: 6

Alright, here's another molecule for you.
Exercise: Data request, read-out %-inhibition of IRAK1, for CO[C@H]1C[C@@H]2CC[C@@H](C)[C@@](O)(O2)C(=O)C(=O)N2CCCC[C@H]2C(=O)O[C@H]([C@H](C)C[C@@H]2CC[C@@H](OCCO)[C@H](OC)C2)CC(=O)[C@H](C)/C=C(\C)[C@@H](O)[C@@H](OC)C(=O)[C@H](C)C[C@H](C)/C=C/C=C/C=C/1C [everolimus]
Solution: 12
